test system: NCI-H226; assay: NCI tumour cell line growth inhibition, 48 h
Calls of active or inactive are those of the source. Cut-off read from the data, not from the text of the source: active = GI50 up to about 1.1 µM and inactive = higher.
MEASUREMENT TYPE: GI50

S=c1sc2cscc2s1
15.5 µM (inactive)
O/N=N/c1ccc2ccccc2n1
> 100 µM (inactive)
Cc1c(N2C(=O)CS(=O)(=O)C2c2cccc(Oc3ccccc3)c2)c(=O)n(-c2ccccc2)n1C (stereo unspecified)
42.6 µM (inactive)

Bench note: what GI50 did O=C1c2cc3ncsc3cc2C(=O)c2c(O)ccc(O)c21 show?
> 100 µM (inactive)

Now the same for CCOC(=O)c1c(N2CCCC2)nsc1Nc1ccccc1
> 100 µM (inactive)

Now the same for COc1ccc(C2c3c(-c4ccccc4)nn(-c4ccccc4)c3Oc3ncn(N)c(=N)c32)cc1OC (stereo unspecified)
2.46 µM (inactive)

###

system: SK-MEL-5; assay: NCI tumour cell line growth inhibition, 48 h
Activity calls are given as the source filed them. Cut-off read from the data, not from the text of the source: active = GI50 up to about 1.1 µM and inactive = higher.
Consider the following compounds and their measured GI50 readings.

Study these solved cases before continuing.
O=C1CC(O)c2c(Cl)sc(Cl)c21 (stereo not drawn)
17.1 µM (inactive)
CS(=O)(=O)OC1CCN(C2(c3cccc(O)c3)CCCCC2)CC1
43.5 µM (inactive)

Please find the next compound below.
Bench note: what GI50 did O=C1Nc2ccccc2Nc2ccncc21 show?
> 100 µM (inactive)

###

test system: OVCAR-5; assay: NCI tumour cell line growth inhibition, 48 h
The source made the active and inactive calls. Cut-off read from the data, not from the text of the source: active = GI50 up to about 1.1 µM and inactive = higher.
One label from this list, please: active, inactive

Consider the worked cases shown below.
O=C1C(c2ccc(C3=[N+]([O-])c4cc([N+](=O)[O-])ccc4C3=O)cc2)=[N+]([O-])c2cc([N+](=O)[O-])ccc21
inactive
CCC(=O)NC(OCC1(CC)COC1)(C(F)(F)F)C(F)(F)F
inactive
c1ccc(C[N+]23C(CC[C@H]2c2ccccc2)CC[C@H]3c2ccccc2)cc1 (some centres undefined)
inactive
CC(=O)NC1C(OCc2ccccc2)OC(CO)C(O)C1OC(C)C(=O)NC(C(=O)NC(CCC(=O)NCCCNc1ccc([N+](=O)[O-])c2[nH]c3ccccc3c(=O)c12)C(N)=O)C(C)C (centres undefined)
inactive
O=C1CCC(=O)N1n1c(Cc2ccc(Cl)cc2)n[nH]c1=O
inactive
O=C(Nc1ccccc1)N1N=C(c2ccccc2)C1c1ccccc1 (centres undefined)
inactive
CCCN(CCCC(NC(C)=O)C(=O)NCc1ccccc1)C(=O)N(CCCl)N=O (centres undefined)
inactive
Cc1ccccc1Nc1cn(COCc2ccccc2)c(=O)[nH]c1=O
inactive

Assay outcome for Cc1c[nH]c2c1C13CC1CN(C(=O)c1cc4cc(NC(=O)c5cc6ccccc6o5)ccc4[nH]1)C3=CC2=O (centres undefined) : what was it?
active

Now the same for Cc1nc(Nc2nc3ccccc3[nH]2)[nH]c(=O)c1CCO
inactive

Now the same for CC(C)(C)NC(=S)N/N=C/c1ccccn1
active

Now the same for COC1C(O)CC(OC2C(C)OC(Oc3cc(O)c4c(O)c5c(cc4c3)C[C@@H]([C@H](OC)C(=O)[C@@H](O)[C@@H](C)O)[C@H](OC3CC(OC4CC(OC6CC(C)(O)C(O)C(C)O6)C(O)C(C)O4)C(O)C(C)O3)C5=O)CC2OC(C)=O)OC1C (some centres undefined)
inactive

Now the same for CCCN(CCC)c1c([N+](=O)[O-])cc(S(N)(=O)=O)cc1[N+](=O)[O-]
inactive

Now the same for CN1C(=O)C(C)(C)NS1(=O)=O
inactive

Now the same for CC(C)(C)OC(=O)CN1CCNCCNCC1
inactive

Now the same for C[C@]12CC[C@H](O)CC1=CC[C@@H]1[C@@H]2CC[C@]2(C)C(=O)/C(=C/c3ccc([N+](=O)[O-])cc3)C[C@@H]12
inactive

Now the same for CN(C)CCCN1c2ccc3ccccc3c2Sc2cccc(Cl)c21
inactive

Now the same for Nc1cc(CO)cc(Nc2c3ccccc3nc3ccccc23)c1
inactive

Now the same for COC1=CC(=O)c2c(cc(COP(=O)(OCC3OC(n4cc(F)c(=O)[nH]c4=O)CC3O)N(C)CCCCCl)n2C)C1=O (centres undefined)
inactive

The measured values listed here are drawn from ChEMBL document CHEMBL1201862.
